Test: Metabolic stability in rat liver microsomes at 2 uM
Format: ADME, Microsome
Conditions: read-out: Stability
VALUE TYPE: remaining at 2 µM (%)

(I) CC(C)c1nnc2ccc(CCc3ccc(F)cc3F)cn12
(II) CC(C)c1nnc2ccc(C(=O)c3ccc(F)cc3F)cn12
// which entry has the larger remaining at 2 µM value, I or II ? State the label of the item chosen. II

(a) CC(C)c1nnc2ccc(Sc3ccc(F)cc3F)cn12
(b) CC(C)c1nnc2ccc(Sc3ccc(F)cc3F)c(Cl)n12
For this pair, a and b , which shows a numerically higher remaining at 2 µM? # respond with the chosen item's label a

(1) CC(C)c1nnc2cc(Cl)c(Sc3ccc(F)cc3F)cn12
(2) CC(C)c1nnc2ccc([S+]([O-])c3ccc(F)cc3F)cn12 (stereo not drawn)
Name the one with the greater remaining at 2 µM value, either 1 or 2 as given. Record your answer as the label of the chosen record. 2
(2: 100%, 1: 37%)

(P) CC(C)c1nnc2cc(Cl)c(Sc3ccc(F)cc3F)c(Br)n12
(Q) CC(C)c1nnc2cc(Cl)c(Sc3ccc(F)cc3F)c(Cl)n12
Compare remaining at 2 µM: is it lower for P or for Q ? Write down the label attached to your selection. P
